Please respond with reported pIC50 for every item in the list.
# measurement target: Recombinant human ATX (Homo sapiens (Human), UniProt Q13822)
# test summary: ATX inhibition assay (choline release, Amplex Red fluorescence)
# conditions: ATX 10 nM, LPC 18:1 10 μM, 37° C., 20 min pre-incubation; mean of n≧2
# pIC50 = -log10(concentration in molar units)

Query string: So what does the record say about pIC50 for Cc1nnn(Cc2cc(Cl)ccc2/C=C/C(=O)N2CCC(c3ccc(F)cc3)CC2)n1 ?
Result string: 7.51

Query string: So what does the record say about pIC50 for Cc1nnn(Cc2cc(C(F)(F)F)ccc2/C=C/C(=O)N2CCC(c3nnc(C)o3)CC2)n1 ?
Result string: 8.10

Query string: So what does the record say about pIC50 for Cc1nnn(Cc2cc(Cl)ccc2/C=C/C(=O)N2CCCCC2c2nc(C(C)C)no2)n1 (single isomer, unassigned) [Example 30a] ?
Result string: 8.31

Query string: So what does the record say about pIC50 for Cc1nnn(Cc2cc(Cl)ccc2/C=C/C(=O)N2CCN(Cc3coc(C)n3)CC2)n1 ?
Result string: 7.52

Query string: So what does the record say about pIC50 for Cc1cn(C2CCN(C(=O)/C=C/c3ccc(Cl)cc3Cn3nnc(C)n3)CC2)nn1 ?
Result string: 7.00

Query string: So what does the record say about pIC50 for Cc1nnn(Cc2cc(Cl)ccc2/C=C/C(=O)N2CCC(O)(Cn3cc(C(F)(F)F)cn3)CC2)n1 ?
Result string: 7.43

Query string: So what does the record say about pIC50 for Cc1nnn(Cc2cc(Cl)ccc2/C=C/C(=O)N2CCCC(c3nc(C(C)C)no3)C2)n1 (single isomer, unassigned) [Example 34b] ?
Result string: 6.83

Query string: So what does the record say about pIC50 for Cc1nnn(Cc2cc(Cl)ccc2/C=C/C(=O)N2CCC(O)(Cn3cc(C(=O)O)cn3)CC2)n1 ?
Result string: 6.03

Query string: So what does the record say about pIC50 for CCc1nnc(C2CCN(C(=O)/C=C/c3ccc(Cl)cc3Cn3nnc(C)n3)CC2)o1 ?
Result string: 8.00

Query string: So what does the record say about pIC50 for Cc1nnn(Cc2cc(C(F)(F)F)ccc2/C=C/C(=O)N2CCN(Cc3coc(C)n3)C[C@H]2CO)n1 ?
Result string: 7.85

Query string: So what does the record say about pIC50 for Cc1nnn(Cc2cc(Cl)ccc2/C=C/C(=O)N2CCN(c3ncccn3)CC2)n1 ?
Result string: 7.70

Query string: So what does the record say about pIC50 for COC(=O)C1CCN(C(=O)/C=C/c2ccc(Cl)cc2Cn2nnc(C)n2)CC1 ?
Result string: 7.55

Query string: So what does the record say about pIC50 for Cc1nnn(Cc2cc(Cl)ccc2/C=C/C(=O)N2CCCCC2c2nc(C(C)C)no2)n1 (racemic) [Example 30] ?
Result string: 7.96

Query string: So what does the record say about pIC50 for Cc1ncn(C2CCN(C(=O)/C=C/c3ccc(Cl)cc3Cn3nnc(C)n3)CC2)n1 ?
Result string: 7.40

Query string: So what does the record say about pIC50 for Cc1nnn(Cc2cc(Cl)ccc2/C=C/C(=O)N2CCN(c3ccn(C)n3)C[C@H]2C)n1 ?
Result string: 7.80

Query string: So what does the record say about pIC50 for Cc1nnn(Cc2cc(Cl)ccc2/C=C/C(=O)N2CCN(C3CCN(C(=O)c4c[nH]nn4)CC3)CC2)n1 ?
Result string: 8.31

---

# measurement target: Recombinant human ATX (Homo sapiens (Human), UniProt Q13822)
# test summary: ATX inhibition assay (choline release, Amplex Red fluorescence)
# conditions: ATX 10 nM, LPC 18:1 10 μM, 37° C., 20 min pre-incubation; mean of n≧2
Please respond with reported pIC50 for every item in the list.
# pIC50 = -log10(concentration in molar units)

Query string: So what does the record say about pIC50 for Cc1noc(C2CCCCN2C(=O)/C=C/c2ccc(Cl)cc2Cn2nnc(C)n2)n1 (single isomer, unassigned) [Example 23a] ?
Result string: 8.02

Query string: So what does the record say about pIC50 for Cc1noc(CN2CCN(C(=O)/C=C/c3ccc(Cl)cc3Cn3nnc(C)n3)[C@H](C)C2)n1 ?
Result string: 8.41

Query string: So what does the record say about pIC50 for Cc1nnn(Cc2cc(Cl)ccc2/C=C/C(=O)N2CCN(Cc3nc4ccccc4n3C)CC2)n1 ?
Result string: 7.37

Query string: So what does the record say about pIC50 for Cc1nnn(Cc2cc(Cl)ccc2/C=C/C(=O)N2CCC(O)(Cn3cc(C(=O)N4CCCCC4)cn3)CC2)n1 ?
Result string: 7.96

Query string: So what does the record say about pIC50 for Cc1nnc(Cc2cc(Cl)ccc2/C=C/C(=O)N2CCC(Cc3nnc(C)o3)CC2)o1 ?
Result string: 5.63

Query string: So what does the record say about pIC50 for Cc1nnn(Cc2cc(Cl)ccc2/C=C/C(=O)N2CCN(Cc3cnn(C)c3)C[C@H]2C)n1 ?
Result string: 8.38

Query string: So what does the record say about pIC50 for Cc1nnn(Cc2cc(C(F)(F)F)ccc2/C=C/C(=O)N2CCC(N(C)C(=O)c3ccc(F)cc3)CC2)n1 ?
Result string: 7.72

---

# measurement target: Recombinant human ATX (Homo sapiens (Human))
# test summary: ATX inhibition assay (choline release, Amplex Red fluorescence)
# conditions: ATX 10 nM, LPC 18:1 10 μM, 37° C., 20 min pre-incubation; mean of n≧2
measure: log10 IC50 (log10 of the value in nM)
Hi team, quick reminder: these entries are log10 of IC50 (nM).

Query string: So what does the record say about log10 IC50 for Cc1nnn(Cc2cc(Cl)ccc2/C=C/C(=O)N2CCCC(O)C2)n1 (centres unmarked) ?
Result string: 2.18

Query string: So what does the record say about log10 IC50 for Cc1nnn(Cc2cc(Cl)ccc2/C=C/C(=O)N2CC(Oc3ccc(F)cc3)C2)n1 ?
Result string: 2.23

Query string: So what does the record say about log10 IC50 for COC[C@@H]1CCCN1C(=O)/C=C/c1ccc(C(F)(F)F)cc1Cn1nnc(C)n1 ?
Result string: 1.67

Query string: So what does the record say about log10 IC50 for Cc1nnn(Cc2cc(C(F)(F)F)ccc2CCC(=O)N2CCC(c3nnc(C)o3)CC2)n1 ?
Result string: 1.62

Query string: So what does the record say about log10 IC50 for Cc1nnn(Cc2cc(Cl)ccc2/C=C/C(=O)N2CCC(C(F)(F)F)CC2)n1 ?
Result string: 1.69

Query string: So what does the record say about log10 IC50 for Cc1nnn(Cc2cc(Cl)ccc2/C=C/C(=O)N2CCC(O)(Cc3ccccc3)CC2)n1 ?
Result string: 0.80

Query string: So what does the record say about log10 IC50 for Cc1nnn(Cc2cc(Cl)ccc2/C=C/C(=O)N2CCC(CCc3nnc(C)o3)CC2)n1 ?
Result string: 2.21

Query string: So what does the record say about log10 IC50 for Cc1nnn(Cc2cc(C(F)(F)F)ccc2/C=C/C(=O)N2CCC(c3nnc(C4CC4)o3)CC2)n1 ?
Result string: 0.68

---

# measurement target: Recombinant human ATX (Homo sapiens (Human), UniProt Q13822)
# test summary: ATX inhibition assay (choline release, Amplex Red fluorescence)
# conditions: ATX 10 nM, LPC 18:1 10 μM, 37° C., 20 min pre-incubation; mean of n≧2
# Method: Reagents—LPC (oleoyl (18:1)) was purchased from Avanti Polar Lipids (Alabaster, Ala.) and solubilized in methanol to 20 mM. Amplex Red was obtained from Invitrogen Life Technologies (Paisley, UK) and dissolved in DMSO to 10 mM. […] PerkinElmer EnVision (Fluorescence Intensity/Absorbance Monochromator) or Tecan Infinite 200 PRO series plate reader was used to detect change in fluorescent intensity. […]
# label = Condition met if IC50 < 50 nM else Condition not met

Query string: Given the entry CCOC(=O)C1CCN(C(=O)/C=C/c2ccc(Cl)cc2Cn2nnc(C)n2)CC1 , would its reported IC50 be below 50 nM?
Result string: Condition met

Query string: Given the entry Cc1nnn(Cc2cc(Cl)ccc2/C=C/C(=O)N2CCCC(C(N)=O)C2)n1 (stereo not shown) , would its reported IC50 be below 50 nM?
Result string: Condition not met

Query string: Given the entry Cc1nnn(Cc2cc(Cl)ccc2/C=C/C(=O)N2CCC(O)(Cn3cc(C(=O)N(C)C)cn3)CC2)n1 , would its reported IC50 be below 50 nM?
Result string: Condition not met

Query string: Given the entry Cc1nnn(Cc2cc(C(F)(F)F)ccc2/C=C/C(=O)N2CCN(Cc3coc(C)n3)C[C@H]2C)n1 , would its reported IC50 be below 50 nM?
Result string: Condition met

Query string: Given the entry Cc1nnn(Cc2cc(C(F)(F)F)ccc2/C=C/C(=O)N2CCC(N3CCCCC3=O)CC2)n1 , would its reported IC50 be below 50 nM?
Result string: Condition met

Query string: Given the entry Cc1nnn(Cc2cc(OC(F)F)ccc2/C=C/C(=O)N2CCC(Cc3nnc(C)o3)CC2)n1 , would its reported IC50 be below 50 nM?
Result string: Condition not met

Query string: Given the entry Cc1cnn(C2CCN(C(=O)/C=C/c3ccc(Cl)cc3Cn3nnc(C)n3)CC2)n1 , would its reported IC50 be below 50 nM?
Result string: Condition met

Query string: Given the entry Cc1nnn(Cc2cc(C#N)ccc2/C=C/C(=O)N2CCC(Cc3nnc(C)o3)CC2)n1 , would its reported IC50 be below 50 nM?
Result string: Condition not met

Query string: Given the entry Cc1nc(Cc2cc(Cl)ccc2/C=C/C(=O)N2CCN(Cc3ccc(F)cc3)C[C@H]2C)no1 , would its reported IC50 be below 50 nM?
Result string: Condition met

Query string: Given the entry Cc1nnn(Cc2cc(C(F)F)ccc2/C=C/C(=O)N2CCC(Cc3nnc(C)o3)CC2)n1 , would its reported IC50 be below 50 nM?
Result string: Condition met

Query string: Given the entry CNC(=O)[C@@H]1CCCCN1C(=O)/C=C/c1ccc(C(F)(F)F)cc1Cn1nnc(C)n1 , would its reported IC50 be below 50 nM?
Result string: Condition met

Query string: Given the entry Cc1nnn(Cc2cc(Cl)ccc2/C=C/C(=O)N2CCC(O)C[C@H]2C)n1 (single isomer, unassigned) [Example 50b] , would its reported IC50 be below 50 nM?
Result string: Condition not met

Query string: Given the entry Cc1nnn(Cc2cc(Cl)ccc2/C=C/C(=O)N2CCC(Cc3nnc(C)o3)CC2)n1 , would its reported IC50 be below 50 nM?
Result string: Condition not met

Query string: Given the entry Cc1nnn(Cc2cc(C(F)(F)F)ccc2/C=C/C(=O)N2CCOCC2C(F)(F)F)n1 (stereo not shown) , would its reported IC50 be below 50 nM?
Result string: Condition met

Query string: Given the entry Cc1nnn(Cc2cc(Cl)ccc2/C=C/C(=O)N2CCC(Cc3nnc(CN4CCOCC4)o3)CC2)n1 , would its reported IC50 be below 50 nM?
Result string: Condition met

Query string: Given the entry Cc1cc(CN2CCN(C(=O)/C=C/c3ccc(Cl)cc3Cn3nnc(C)n3)CC2)on1 , would its reported IC50 be below 50 nM?
Result string: Condition not met

Query string: Given the entry Cc1nnn(Cc2cc(Cl)ccc2/C=C/C(=O)N2CCN(C(=O)c3ccco3)CC2)n1 , would its reported IC50 be below 50 nM?
Result string: Condition not met

Query string: Given the entry Cc1nnn(Cc2cc(C(F)(F)F)ccc2/C=C/C(=O)N2CCC(c3noc(C)n3)CC2)n1 , would its reported IC50 be below 50 nM?
Result string: Condition met

Query string: Given the entry Cc1cc(CN2CCN(C(=O)/C=C/c3ccc(C(F)(F)F)cc3Cn3nnc(C)n3)CC2)on1 , would its reported IC50 be below 50 nM?
Result string: Condition met

Query string: Given the entry Cc1nnn(Cc2cc(C(F)(F)F)ccc2/C=C/C(=O)N2CCC[C@H]2C)n1 , would its reported IC50 be below 50 nM?
Result string: Condition not met

Query string: Given the entry Cc1nnn(Cc2cc(C(F)F)ccc2/C=C/C(=O)N2CCC(c3noc(C)n3)CC2)n1 , would its reported IC50 be below 50 nM?
Result string: Condition met

Query string: Given the entry Cc1nnn(Cc2cc(C(F)(F)F)ccc2/C=C/C(=O)N2C[C@@H](F)C[C@H]2CO)n1 , would its reported IC50 be below 50 nM?
Result string: Condition met

Query string: Given the entry COc1ccc(/C=C/C(=O)N2CCC(Cc3nnc(C)o3)CC2)c(Cn2nnc(C)n2)c1 , would its reported IC50 be below 50 nM?
Result string: Condition not met

Query string: Given the entry Cc1nnn(Cc2cc(Cl)ccc2/C=C/C(=O)N2CCC(CCN(C)C(=O)c3c[nH]c(=O)o3)CC2)n1 , would its reported IC50 be below 50 nM?
Result string: Condition met

Query string: Given the entry Cc1nnn(Cc2cc(C(F)(F)F)ccc2/C=C/C(=O)N2CCC(N3CCCC3=O)CC2)n1 , would its reported IC50 be below 50 nM?
Result string: Condition met

Query string: Given the entry Cc1nnn(Cc2cc(Cl)ccc2/C=C/C(=O)N2CCN(Cc3noc(C)n3)C[C@H]2C)n1 , would its reported IC50 be below 50 nM?
Result string: Condition met

Query string: Given the entry Cc1nnn(Cc2cc(Cl)ccc2/C=C/C(=O)N2CCC(n3nccn3)CC2)n1 , would its reported IC50 be below 50 nM?
Result string: Condition met

Query string: Given the entry COCC(=O)N(C)C1CCN(C(=O)/C=C/c2ccc(C(F)(F)F)cc2Cn2nnc(C)n2)CC1 , would its reported IC50 be below 50 nM?
Result string: Condition met

Query string: Given the entry Cc1nnn(Cc2cc(Cl)ccc2/C=C/C(=O)N2CCC(Cn3cccn3)CC2)n1 , would its reported IC50 be below 50 nM?
Result string: Condition met

Query string: Given the entry Cc1nnn(Cc2cc(C(F)(F)F)ccc2/C=C/C(=O)N2CCC(C(=O)O)CC2)n1 , would its reported IC50 be below 50 nM?
Result string: Condition not met

Query string: Given the entry Cc1nnn(Cc2cc(C(F)(F)F)ccc2/C=C/C(=O)N2CCN(CC(=O)OC(C)(C)C)C[C@H]2C)n1 , would its reported IC50 be below 50 nM?
Result string: Condition met
